Consider the following compounds and their measured TGI readings.
System: ACHN renal
Assay notes: NCI tumour cell line growth inhibition, 48 h

# Compound structure, System under test, Comparison operator, TGI / µM
data = [
    ("COc1ccc2c(c1)CCN=C2Cc1ccccc1CCCl", "ACHN renal", "=", 79.2),
    ("O=C1/C=C/[C@@H](O)[C@@H]2C[C@@H](O)C[C@H]2/C=C/CCC[C@H](CCc2ccc(C(F)(F)F)cc2)O1", "ACHN renal", ">", 100),
    ("COc1ccc(/C=C/C(=O)C(C)(C)CN2CCCCC2)cc1", "ACHN renal", "=", 60.1),
    ("CCOC(CCCNCCCn1c2c(c3cc(OC)c(OC)cc3c1=O)C(=O)c1cc3c(cc1-2)OCO3)OCC", "ACHN renal", "=", 7.66),
    ("O=C1c2sc(-c3ccc(F)cc3)cc2-n2cccc21", "ACHN renal", ">", 100),
]

###

Consider the following compounds and their measured TGI readings.
System: SNB-75 CNS
Assay notes: NCI tumour cell line growth inhibition, 48 h
Experimental endpoint: TGI

# Compound, System under test, Recorded measurement
rows = [
    ("CCCCOCn1c(=O)[nH]c(=O)c2ccccc21", "SNB-75 CNS", "82.9 µM"),
    ("Cc1c(-c2ccccc2)c(=O)oc2ccc(Cl)cc12", "SNB-75 CNS", "43.7 µM"),
    ("c1ccc(CSC2(SCc3ccccc3)CCCC2)cc1", "SNB-75 CNS", "> 10 µM"),
    ("CCN1C(=O)N(CC)C2C1NN=c1s/c(=C\\c3ccccc3F)c(=O)n12 (stereo not drawn)", "SNB-75 CNS", "0.0711 µM"),
    ("Cn1cc(-c2csc(-c3cn(C)c4ccc(Br)cc34)n2)c2cnccc21", "SNB-75 CNS", "2.6 µM"),
    ("COCc1c(CO)cnc(C)c1OC1OC(CO)C(O)C(O)C1O (stereo not drawn)", "SNB-75 CNS", "> 100 µM"),
    ("CCN1CCN(c2nc3ccccc3nc2C(=O)c2ccc(OC)cc2)CC1", "SNB-75 CNS", "> 100 µM"),
    ("Cc1cccc(NC(=S)Nc2ccc([N+](=O)[O-])cc2)n1", "SNB-75 CNS", "> 100 µM"),
    ("O=C1/C=C/[C@@H](O)[C@@H]2C[C@@H](O)C[C@H]2/C=C/CCC[C@H](CCc2ccc(C(F)(F)F)cc2)O1", "SNB-75 CNS", "32.5 µM"),
    ("COc1ccc2c(c1)CCN=C2Cc1ccccc1CCCl", "SNB-75 CNS", "> 100 µM"),
    ("C=CC(CBr)CCC(Br)C(C)(C)Br (stereo not drawn)", "SNB-75 CNS", "> 10 µM"),
    ("CC1(C)C(C#N)=[N+]([O-])C(C)(C)N1O", "SNB-75 CNS", "> 100 µM"),
    ("COc1ccc(CCN2CCCN3C2=Nc2ccccc2S3(=O)=O)cc1", "SNB-75 CNS", "> 100 µM"),
    ("CSc1nc(NC2OCC(OC(C)=O)C(OC(C)=O)C2OC(C)=O)c(N=C(C)C(C)=O)c(=O)n1C (stereo not drawn)", "SNB-75 CNS", "> 100 µM"),
    ("Sc1ccc2ccccc2c1CNCc1ccccc1", "SNB-75 CNS", "44.2 µM"),
    ("CCCOc1ccc(-c2nc(-c3ccc(N=Cc4ccc(N(CCOS(C)(=O)=O)CCOS(C)(=O)=O)cc4C)cc3)cs2)cc1", "SNB-75 CNS", "18 µM"),
    ("CCSC1=N/C(=C\\c2ccco2)C(NN)=N1", "SNB-75 CNS", "> 50 µM"),
    ("CC(N)C(=O)OCN1C(=O)C2C3C=CC(C2C1=O)C1C2C(=O)N(COC(=O)C(C)N)C(=O)C2C31 (stereo not drawn)", "SNB-75 CNS", "85.5 µM"),
    ("CC1=CC=C2c3ccccc3C=CN2C(=O)C1", "SNB-75 CNS", "> 100 µM"),
    ("CCn1ncc2c1nc(-c1ccccc1)c[n+]2[O-]", "SNB-75 CNS", "> 100 µM"),
    ("COC(=O)C(Cc1cnc[nH]1)NC(=O)CNC(=O)CCCn1c(=O)c2c3ccccc3n(C)c2n2nnc(-c3ccccc3)c12 (stereo not drawn)", "SNB-75 CNS", "> 100 µM"),
    ("O=C1/C(=C\\c2ccc(F)cc2)CN(C(=O)c2ccc([N+](=O)[O-])cc2)C/C1=C\\c1ccc(F)cc1", "SNB-75 CNS", "> 93 µM"),
    ("Cc1ccc(-n2c3nc(=O)n(C)c(=O)c-3nc3ccccc32)cc1", "SNB-75 CNS", "39.7 µM"),
    ("CCCCC(C(=O)N/N=C/c1ccc([N+](=O)[O-])o1)C(=O)N/N=C/c1ccc([N+](=O)[O-])o1", "SNB-75 CNS", "33.5 µM"),
    ("CC1=C(C)CC(C#N)(C#N)C(C#N)(C#N)C1", "SNB-75 CNS", "> 10 µM"),
    ("CO/[N+]([O-])=C\\C(=O)N/C=C/C(=O)O", "SNB-75 CNS", "> 100 µM"),
    ("CCN(CC)CC.CCOc1ccc(NC(=O)N=C=[N-])cc1.[CH-]1CCCCC1.[CH-]1CCCCC1.[CH-]1CCCCC1.[Cl-].[Sn+4]", "SNB-75 CNS", "0.108 µM"),
    ("C=CC(=O)N1C/C(=C\\c2ccccc2)C(=O)/C(=C/c2ccccc2)C1", "SNB-75 CNS", "10 µM"),
    ("NC(=O)/C(=C\\c1ccncc1)c1cccc2ccccc12", "SNB-75 CNS", "> 100 µM"),
    ("COc1c(C)c2c(c3c1c(=O)c1ccccc1n3C)C=CC(C)(C)O2", "SNB-75 CNS", "62.8 µM"),
    ("Cc1cc(N)ccc1N=Nc1ccc(S(=O)(=O)CCOS(=O)(=O)O)cc1", "SNB-75 CNS", "19.8 µM"),
    ("C1CCC(OCc2nnn3c2CCC3)OC1 (stereo not drawn)", "SNB-75 CNS", "> 100 µM"),
    ("CN(C)CCCNC(=O)c1ccc2oc3cc4ccccc4c(=O)n3c2c1", "SNB-75 CNS", "33.1 µM"),
    ("CC(C)/C(Cl)=N/OC(=O)Nc1cccc(C(F)(F)F)c1", "SNB-75 CNS", "21.2 µM"),
    ("[O-]c1c[n+](CCCC[n+]2cc([O-])on2)no1", "SNB-75 CNS", "> 100 µM"),
    ("Fc1ccc(-c2nn3c(CNc4ccccc4)nnc3s2)cc1", "SNB-75 CNS", "> 100 µM"),
    ("Nc1ccc(Oc2ccc(C3(c4ccc(Oc5ccc(N)cc5)cc4)C4CC5C6CC7CC5C3C(C7)C6C4)cc2)cc1", "SNB-75 CNS", "> 100 µM"),
    ("Cc1cccc(O)c1-c1nnc(CCCCCCCCc2nnc(-c3c(C)cccc3O)n2N)n1N", "SNB-75 CNS", "> 58.1 µM"),
    ("CC1=C(C#N)C23C(=O)c4ccccc4C(O)=C2C(=O)C=CC3(O)N1 (stereo not drawn)", "SNB-75 CNS", "4.56 µM"),
    ("Cc1nc2ccccn2c1NC(=O)NNC(=S)Nc1ccc(Br)cc1", "SNB-75 CNS", "67.5 µM"),
    ("CCCc1cc(=O)oc2c(C=O)c(O)cc(O)c12", "SNB-75 CNS", "47.4 µM"),
    ("O=C(NO)c1ccc(OCc2cccc(Cl)c2)cc1", "SNB-75 CNS", "> 70.2 µM"),
    ("O=c1[nH]cc(/C=N\\Nc2ccccc2)c(=O)[nH]1", "SNB-75 CNS", "> 100 µM"),
]

###

Consider the following compounds and their measured TGI readings.
Test system: SW-620 colon
Assay notes: NCI tumour cell line growth inhibition, 48 h

# Compound, System under test, TGI
records = [
    ("O=C(NCCc1ccccc1)C(c1ccccc1)(c1ccccc1)c1ccccc1", "SW-620 colon", "> 100 µM"),
    ("CCN1CCN(c2nc3ccccc3nc2C(=O)c2ccc(OC)cc2)CC1", "SW-620 colon", "> 100 µM"),
    ("CN(C)C(=S)N1C(=S)N(c2ccccc2)C(=Nc2ccccc2)C1=Nc1ccccc1", "SW-620 colon", "> 100 µM"),
    ("COCc1c(CO)cnc(C)c1OC1OC(CO)C(O)C(O)C1O (stereo unspecified)", "SW-620 colon", "> 100 µM"),
    ("C=C(C)[C@@H]1CC[C@]2(C(N)=O)CC[C@]3(C)[C@H](CC[C@@H]4[C@@]5(C)CC[C@H](O)C(C)(C)[C@@H]5CC[C@]43C)[C@@H]12", "SW-620 colon", "26.1 µM"),
    ("Cc1ccc2nc(N/N=C/c3ccc(C)s3)cc(C)c2c1", "SW-620 colon", "29.4 µM"),
    ("O=C1c2sc(-c3ccc(F)cc3)cc2-n2cccc21", "SW-620 colon", "> 100 µM"),
    ("O=C(Cc1nc2ccccc2s1)Nc1ccc(Cl)cc1", "SW-620 colon", "> 100 µM"),
    ("Cc1cc(N)ccc1N=Nc1ccc(S(=O)(=O)CCOS(=O)(=O)O)cc1", "SW-620 colon", "16.1 µM"),
    ("C=C1C(=O)OC2/C=C(\\C)C3OC3/C=C(/C(=O)OC)C(O)C(OC(=O)C3(C)OC3C)C12 (stereo unspecified)", "SW-620 colon", "3.1 µM"),
    ("O=C1/C=C/[C@@H](O)[C@@H]2C[C@@H](O)C[C@H]2/C=C/CCC[C@H](CCc2ccc(C(F)(F)F)cc2)O1", "SW-620 colon", "1.27 µM"),
]
